The measurements presented in this section are drawn from the nanobody polyreactivity screen of Harvey et al. (2022).

experiment: yeast display, Sf9 membrane polyspecificity reagent, FACS + sequencing; frameworks hold sequencing errors
reported-endpoint: polyreactivity (PSR sort gate)

Below, 5 sequences whose answers are already recorded.
Q: Specify polyreactivity (PSR sort gate) for "QVQLVESGGGLVQAGGSLRLSCAASGRTFRYYAMGWYRQAPGKERELVAAITWSVGSTYYADSVKGRFTISRDNAKNTVYLQMNSRKPEDTAVYYCAADRVRGGYRTYYWVVHFDYWGQGTQVTVSS" and stop.
Result: high polyreactivity

Q: Specify polyreactivity (PSR sort gate) for "QVQLVESGGGLVQAGGSLRLSCAASGSTFSSYGMGWYRQAPGKERELVAAISKRGGSTYYADSVKGRFTISRDNAKNTVYLQMNSLKPEDTAVYYCAARYRLYYYFRFDWGQGTHVTVSS" and stop.
Result: high polyreactivity

Q: Specify polyreactivity (PSR sort gate) for "QVQLVESGGGLVQAGGSLRLSCAASGRTLRWYAMGWYRQAPGKERELVAAITWRGGSTRYADSVKGRFTISRDNAKNTVYLQMNSLKPEDTAVYYCNKYYYRTIEGDYWGQGTQVTVSS" and stop.
Result: high polyreactivity

Q: Specify polyreactivity (PSR sort gate) for "QVQLVESGGGLVQAGGSLRLSCAASGSIFKHNDMGWYRQAPGKERELVAAISRSGGATYYAHSVKGRFTISRDNAKNTVYLQMNSLKPEDTAVYYCNAGRRTARYGYWGQGTQVTVSS" and stop.
Result: high polyreactivity

Q: Specify polyreactivity (PSR sort gate) for "QVQLVESGGGLVQAGGSLRLSCAASGLTLYYYAMGWYRQAPGKERELVAAISYSGGSTYYADSVKGRFTISRDNAKNTVYLQMNSLKPEDTAVYYCAADGDSDIRDDYWGQGTQVTVSS" and stop.
Result: low polyreactivity

---
Q: Specify polyreactivity (PSR sort gate) for "QVQLVESGGGLVQAGGSLRLSCAASGRIFLQYDMGWYRQAPGKERELVAGISSRGGSMYYADSVKGRFTISRDNAKNTVYLQMNSLKPEDTAVYYGAAQTKRIRYVYKHYYWGQGTQVTVSS" and stop.
Result: high polyreactivity

Q: Specify polyreactivity (PSR sort gate) for "QVQLVESGGGLVQAGGSLRLSCAATGGLFNVYVMGWYRQAPGKERELVAAITWRGGSTYYADSVKGRFTISRDNAKNTVYLQMNSLKPEDTAVYYCNADAPFQSSSDGYQVEYWGQGTQVTVSS" and stop.
Result: low polyreactivity

Q: Specify polyreactivity (PSR sort gate) for "QLQLVESGGGLVQAGGRLRLSSAASGRTFRYYAMGWYRQAAGKERELVASITSGGRTYYADSVKGRFTISRDNAKNTVYLQMNSLKPEDTAVYYCAADRFGIGGKRGNDYWGQGTQVTVSS" and stop.
Result: high polyreactivity

Q: Specify polyreactivity (PSR sort gate) for "QVQLVESGGGLVQAGGSLRLSCAASGSTFYLYVMGWYRQAPGKERELVAAIRRSGTRTYYADSVKGRFTISRDNAKNTVYLQMNSLKPEDTAVYYCAARYSRPSKAYGYWGQGTQVTVSS" and stop.
Result: high polyreactivity

Q: Specify polyreactivity (PSR sort gate) for "QVQLVESGGGLVQAGCSLRLSCAASGRTFYYYAMGWYRQAPGKERELVAAISKSGGSTYYADSVKGRFTISRDNAKNTVYLQMNSLKPEDTAVYYCAALTTHAPHSYNYWGQGTQVTVSS" and stop.
Result: low polyreactivity

Q: Specify polyreactivity (PSR sort gate) for "QVQLVESGGGLVQAGGSLRLSCAASGRTFSVNAMGWYRPAPGKERELVAAISWSTGSTYYADSVKGRFTISRDNAKNTVYLQMNSLKPEDTAVYYCAKLYEYRRSRYRTYGYWGQGTQVTVSS" and stop.
Result: high polyreactivity

Q: Specify polyreactivity (PSR sort gate) for "QVQLVESGGGLVQAGGRLRFSCADSGITFLRYAIGWSRQAPGKERELVAGISYTGGSTNYADSVKGRFTISRDNAKNTVYLQMNSLKPEDSSVYYCAAQGYRWYDYWGQGTQVTVSS" and stop.
Result: high polyreactivity
